Entry source: paper PMC5207153

Let's look at some variants and their measured percent of parent.
B1: VEGF-DΔNΔC [human] / Recombinant human VEGFR-2-Fc chimera [human] (parent complex)
chain 1: FYDIETLKVIDEEWQRTQCSPRETCVEVASELGKSTNTFFKPPCVNVFRCGGCCNEESLICMNTSTSYISKQLFEISVPLTSVPELVPVKVANHTGCKCLPTAPRHPYS
chain 2: ASVGLPSVSLDLPRLSIQKDILTIKANTTLQITCRGQRDLDWLWPNNQSGSEQRVEVTECSDGLFCKTLTIPKVIGNDTGAYKCFYRETDLASVIYVYVQDYRSPFIASVSDQHGVVYITENKNKTVVIPCLGSISNLNVSLCARYPEKRFVPDGNRISWDSKKGFTIPSYMISYAGMVFCEAKINDESYQSIMYIVVVVGYRIYDVVLSPSHGIELSVGEKLVLNCTARTELNVGIDFNWEYPSSKHQHKKLVNRDLKTQSGSEMKKFLSTLTIDGVTRSDQGLYTCAASSGLMTKKNSTFVRVHEKPFVAFGSGMESLVEATVGERVRIPAKYLGYPPPEIKWYKNGIPLESNHTIKAGHVLTIMEVSERDTGNYTVILTNPISKEKQSHVVSLVVYVPPQIGEKSLISPVDSYQYGTTQTLTCTVYAIPPPHHIHWYWQLEEECANEPSQAVSVTNPYPCEEWRSVEDFQGGNKIEVNKNQFALIEGKNKTVSTLVIQAANVSALYKCEAVNKVGRGERVISFHVTRGPEITLQPDMQPTEQESVSLWCTADRSTFENLTWYKLGPQPLPIHVGELPTPVCKNLDTLWKLNATMFSNSTNDILIMELKNASLQDQGDYVCLAQDRKTKKRHCVVRQLTVLERVAPTITGNLENQTTSIGESIEVSCTASGNPPPQIMWFKDNETLVEDSGIVLKDGNRNLTIRRVRKEDEGLYTCQACSVLGCAKVEAFFIIEGAQEKTNLE

- Variants of: B1
- TEST METHOD NOTES: ELISA; The same amount of each VEGF-DΔNΔC variant was used; assays conducted three times; parent: 100; read off a plot

{"SEQUENCE ENTRY": "chain 1 FYDAETLKVIDEEWQRTQCSPRETCVEVASELGKSTNTFFKPPCVNVFRCGGCCNEESLICMNTSTSYISKQLFEISVPLTSVPELVPVKVANHTGCKCLPTAPRHPYS [chain 1 I4A]", "percent of parent": "~100%"}
{"SEQUENCE ENTRY": "chain 1 AYDIETLKVIDEEWQRTQCSPRETCVEVASELGKSTNTFFKPPCVNVFRCGGCCNEESLICMNTSTSYISKQLFEISVPLTSVPELVPVKVANHTGCKCLPTAPRHPYS [chain 1 F1A]", "percent of parent": "~89%"}
{"SEQUENCE ENTRY": "chain 1 FYDIETLKVIDEEWQATQCSPRETCVEVASELGKSTNTFFKPPCVNVFRCGGCCNEESLICMNTSTSYISKQLFEISVPLTSVPELVPVKVANHTGCKCLPTAPRHPYS [chain 1 R16A]", "percent of parent": "~110%"}
{"SEQUENCE ENTRY": "chain 1 FYDIETLKAIDEEWQRTQCSPRETCVEVASELGKSTNTFFKPPCVNVFRCGGCCNEESLICMNTSTSYISKQLFEISVPLTSVPELVPVKVANHTGCKCLPTAPRHPYS [chain 1 V9A]", "percent of parent": "~110%"}
{"SEQUENCE ENTRY": "chain 1 FYDIETAKVIDEEWQRTQCSPRETCVEVASELGKSTNTFFKPPCVNVFRCGGCCNEESLICMNTSTSYISKQLFEISVPLTSVPELVPVKVANHTGCKCLPTAPRHPYS [chain 1 L7A]", "percent of parent": "~19%"}
{"SEQUENCE ENTRY": "chain 1 FYDIETLKVIDEEWARTQCSPRETCVEVASELGKSTNTFFKPPCVNVFRCGGCCNEESLICMNTSTSYISKQLFEISVPLTSVPELVPVKVANHTGCKCLPTAPRHPYS [chain 1 Q15A]", "percent of parent": "~110%"}
{"SEQUENCE ENTRY": "chain 1 FYDIETLKVIDEEAQRTQCSPRETCVEVASELGKSTNTFFKPPCVNVFRCGGCCNEESLICMNTSTSYISKQLFEISVPLTSVPELVPVKVANHTGCKCLPTAPRHPYS [chain 1 W14A]", "percent of parent": "~62%"}
{"SEQUENCE ENTRY": "chain 1 FADIETLKVIDEEWQRTQCSPRETCVEVASELGKSTNTFFKPPCVNVFRCGGCCNEESLICMNTSTSYISKQLFEISVPLTSVPELVPVKVANHTGCKCLPTAPRHPYS [chain 1 Y2A]", "percent of parent": "~86%"}
{"SEQUENCE ENTRY": "chain 1 FYDIETLKVIAEEWQRTQCSPRETCVEVASELGKSTNTFFKPPCVNVFRCGGCCNEESLICMNTSTSYISKQLFEISVPLTSVPELVPVKVANHTGCKCLPTAPRHPYS [chain 1 D11A]", "percent of parent": "~100%"}
{"SEQUENCE ENTRY": "chain 1 FYDIEALKVIDEEWQRTQCSPRETCVEVASELGKSTNTFFKPPCVNVFRCGGCCNEESLICMNTSTSYISKQLFEISVPLTSVPELVPVKVANHTGCKCLPTAPRHPYS [chain 1 T6A]", "percent of parent": "~100%"}
{"SEQUENCE ENTRY": "chain 1 FYAIETLKVIDEEWQRTQCSPRETCVEVASELGKSTNTFFKPPCVNVFRCGGCCNEESLICMNTSTSYISKQLFEISVPLTSVPELVPVKVANHTGCKCLPTAPRHPYS [chain 1 D3A]", "percent of parent": "~95%"}
{"SEQUENCE ENTRY": "chain 1 FYDIETLKVIDEAWQRTQCSPRETCVEVASELGKSTNTFFKPPCVNVFRCGGCCNEESLICMNTSTSYISKQLFEISVPLTSVPELVPVKVANHTGCKCLPTAPRHPYS [chain 1 E13A]", "percent of parent": "~14%"}
{"SEQUENCE ENTRY": "chain 1 FYDIETLKVADEEWQRTQCSPRETCVEVASELGKSTNTFFKPPCVNVFRCGGCCNEESLICMNTSTSYISKQLFEISVPLTSVPELVPVKVANHTGCKCLPTAPRHPYS [chain 1 I10A]", "percent of parent": "~20%"}
{"SEQUENCE ENTRY": "chain 1 FYDIETLAVIDEEWQRTQCSPRETCVEVASELGKSTNTFFKPPCVNVFRCGGCCNEESLICMNTSTSYISKQLFEISVPLTSVPELVPVKVANHTGCKCLPTAPRHPYS [chain 1 K8A]", "percent of parent": "~88%"}
{"SEQUENCE ENTRY": "chain 1 FYDIETLKVIDAEWQRTQCSPRETCVEVASELGKSTNTFFKPPCVNVFRCGGCCNEESLICMNTSTSYISKQLFEISVPLTSVPELVPVKVANHTGCKCLPTAPRHPYS [chain 1 E12A]", "percent of parent": "~100%"}
{"SEQUENCE ENTRY": "chain 1 FYDIATLKVIDEEWQRTQCSPRETCVEVASELGKSTNTFFKPPCVNVFRCGGCCNEESLICMNTSTSYISKQLFEISVPLTSVPELVPVKVANHTGCKCLPTAPRHPYS [chain 1 E5A]", "percent of parent": "~99%"}
